test system: L5178Y; assay: Antiproliferative activity against parental mouse L5178Y cells assessed as inhibition of cell growth incubated for 72 hrs by MTT assay; format: functional, cell-based
ATTRIBUTE_MEASURED: pIC50
Quick note: pIC50 values are minus log10 of concentrations in mol/L.

COMPOUND	MEASURED_RESULT
CCC(Sc1ccccc1)c1nc(N)nc(N2CCN(C)CC2)n1.Cl (stereo not given)	4.24

Looking up COc1cccc2c1C(=O)c1c(O)c3c(c(O)c1C2=O)C[C@@](O)(C(=O)CO)C[C@@H]3O[C@H]1C[C@H](N)[C@H](O)[C@H](C)O1 , I found its pIC50 recorded as 6.55

Looking up CN1CCN(c2nc(N)nc(CSc3ccc4ccccc4c3)n2)CC1.Cl , I found its pIC50 recorded as 4.72
